// returns N unless log10 vapour pressure (mmHg) is strictly below -3, in which case Y

Please review the entries below; each comes with its answer.
COc1ccccc1Cl    N
Clc1ccc(-c2cc(Cl)c(Cl)c(Cl)c2Cl)cc1Cl    Y
O=[N+]([O-])c1ccccc1O    N

Problem: Find out if reported log10 vapour pressure (mmHg) for C=CC[C@@H](C)CC is less than -3
Result: N

Problem: Dear colleague, could you confirm whether log10 vapour pressure (mmHg) of OCC(S)CS (configuration not stated) falls below -3? Thanks.
Result: N

Problem: Field: below-cutoff. Rule: recorded log10 vapour pressure (mmHg) strictly less than -3. Subject: C1CC12CC2
Result: N

Problem: Dear reviewer, please state whether CC1CN1 (configuration not stated) has log10 vapour pressure (mmHg) strictly beneath -3.
Result: N

Problem: Decide: log10 vapour pressure (mmHg) of CCCCCCOC(C)=O strictly below -3?
Result: N

Problem: Consider COP(=O)(OC)SCn1c(=O)oc2cc(Cl)cnc21 . Does its log10 vapour pressure (mmHg) lie strictly below -3?
Result: Y

Problem: Report whether reported log10 vapour pressure (mmHg) is lower than -3 (strictly) for CC(C)=C1CC[C@@H](C)CC1=O
Result: N

Problem: Consider C#Cc1ccccc1 . Does its log10 vapour pressure (mmHg) lie strictly below -3?
Result: N

Problem: State whether -3 exceeds log10 vapour pressure (mmHg) recorded for NCCOCCO .
Result: N

Problem: Does O=C(O)CCS have log10 vapour pressure (mmHg) strictly under -3?
Result: N

Problem: For this compound, is log10 vapour pressure (mmHg) lower than -3? COC(=O)c1cc(Oc2ccc(Cl)cc2Cl)ccc1[N+](=O)[O-]
Result: Y

Problem: Please state whether log10 vapour pressure (mmHg) is below -3 for CCOP(=S)(OCC)SC(CCl)N1C(=O)c2ccccc2C1=O (configuration not stated)
Result: Y

Problem: Dear colleague, could you confirm whether log10 vapour pressure (mmHg) of CCOC(=O)CC#N falls below -3? Thanks.
Result: N

Problem: Report whether reported log10 vapour pressure (mmHg) is lower than -3 (strictly) for OCCN(CCO)CCO
Result: Y

Problem: Criterion: log10 vapour pressure (mmHg) strictly below -3. Is it met by COC(C)C ?
Result: N

Problem: Criterion: log10 vapour pressure (mmHg) strictly below -3. Is it met by Clc1ccc(Br)cc1 ?
Result: N

Problem: Decide: log10 vapour pressure (mmHg) of O=C(O)c1cccc(Br)c1 strictly below -3?
Result: Y

Problem: In the record for O=[N+]([O-])c1ccc(O)cc1 , is log10 vapour pressure (mmHg) less than -3?
Result: Y

Problem: Threshold test, log10 vapour pressure (mmHg) < -3: O=C(Nc1cccc(Cl)c1)OCC#CCCl
Result: Y

Problem: Does the reported log10 vapour pressure (mmHg) of CC(C)COC(=O)C(C)C stay below -3?
Result: N

Problem: Item CCCCCCCCCCCC(=O)OC(C)C : log10 vapour pressure (mmHg) beneath -3, strictly?
Result: N

Problem: hey, is log10 vapour pressure (mmHg) for Cc1cccc(C)c1N(C(=O)CCl)C1CCOC1=O (configuration not stated) lower than -3 or not?
Result: Y

Problem: Does CCCSCC have log10 vapour pressure (mmHg) strictly under -3?
Result: N

* * *

Here the recorded melting point is given for each entry.
The response must be a number in °C with no trailing unit.

Below, each entry is followed by its recorded melting point result.
COc1cccc(F)c1    -35
CCC(C(C)C)C(C)C    -122

Problem: Entry CNN : reported melting point = ?
Result: -52.4

Problem: Requested field: melting point. Item: COc1ccccc1OP(=O)(Oc1ccccc1OC)Oc1ccccc1OC
Result: 91

Problem: Query (compound): Cc1ccc2oc(=O)ccc2c1 ; field requested: melting point
Result: 76.5

Problem: Recorded melting point of CC(C)NCC(O)c1ccc(O)c(O)c1 (centres undefined) , please.
Result: 170

Problem: Fill blank: measured melting point of the compound O=C1C(Br)=CC(=NCl)C=C1Br is ____.
Result: 83

Problem: May I ask what melting point has been recorded for CC12CC3CC(C)(C1)CC(N)(C3)C2 ?
Result: 258

Problem: Requested field: melting point. Item: Cc1ccc(OP(=O)(Oc2ccc(C)cc2)Oc2ccc(C)cc2)cc1
Result: 77.5

Origin of the recorded values: the OPERA property sets (Mansouri et al. 2018)
